assayed target: cAMP-dependent protein kinase catalytic subunit PRKX (Homo sapiens);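 note: values are mean percent inhibition of PRKX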
Sequence (whole entry): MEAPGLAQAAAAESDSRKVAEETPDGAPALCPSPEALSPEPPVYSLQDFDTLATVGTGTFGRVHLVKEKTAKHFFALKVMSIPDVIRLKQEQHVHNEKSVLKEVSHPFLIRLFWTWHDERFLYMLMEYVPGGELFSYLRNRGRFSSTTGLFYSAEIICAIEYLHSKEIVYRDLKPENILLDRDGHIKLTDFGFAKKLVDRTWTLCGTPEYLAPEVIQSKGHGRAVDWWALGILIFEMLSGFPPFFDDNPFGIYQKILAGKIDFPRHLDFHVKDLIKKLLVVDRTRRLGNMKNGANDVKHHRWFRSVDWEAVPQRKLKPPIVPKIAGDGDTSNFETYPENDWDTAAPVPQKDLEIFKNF
particulars: at 0.1 µM
Entries annotated with measured inhibition
Numbers only here, please. The scale is %.

>  <structure smiles string>
CCOc1nccc2c1nc(-c1nonc1N)n2CC

>  <value units>
%

>  <readout number>
3.1

$$$$

Field inhibition (entry `c1ccc(Cc2nc3ccc(Nc4ncnc5ccccc45)cc3[nH]2)cc1` ) reads 0.98

// `CN(C)CCCn1c(-c2nonc2N)nc2cnccc21` : inhibition value = 1.48
